Data provenance: PubChem BioAssay (NCI)

Listing of entries alongside the reported GI50.
Tested on: SF-295 CNS
Where a SMILES comes first, the peptide text is derived from it. [ ]: non-standard residue; d: D form. The star is where a group is joined. Nle = CCCC[C@H](N)C(=O)O; Cbz = O=C(OCc1ccccc1)*
Quantity measured: GI50

| Compound | Tested target | Quantity measured | Assay result |
| --- | --- | --- | --- |
| CC[C@H](Nc1cc(C)nc(N)n1)c1nc2cccc(NCc3ccc(C(=O)NO)cc3)c2c(=O)n1-c1ccccc1 | SF-295 CNS | GI50 | 1.66 µM |
| C[C@]12CC[C@@H]3c4ccc(O)cc4CC[C@H]3[C@@H]1CC[C@@H]2NS(=O)(=O)c1cccc(OC(F)(F)F)c1 | SF-295 CNS | GI50 | 1.58 µM |
| Cc1ccc(-c2c3c(nn2-c2ccc(S(=O)(=O)NC(=O)Nc4ccccc4)cc2)-c2ccccc2C3)cc1 | SF-295 CNS | GI50 | 34.5 µM |
| CCCC[C@@H](C=O)NC(=O)[C@H](CC(C)C)NC(=O)[C@H](CC(C)C)NC(=O)OCc1ccccc1 (Cbz-Leu-Leu-[Nle]-aldehyde) | SF-295 CNS | GI50 | 0.486 µM |
| CC#CC#Cc1cccc(=O)o1 | SF-295 CNS | GI50 | 12.8 µM |
| CC(=O)Nc1cccc(C#Cc2cncnc2Nc2ccc(OCc3cccc(F)c3)c(Cl)c2)n1 | SF-295 CNS | GI50 | 13.7 µM |
| O=C(Nc1ccc(OCc2nnc(-c3ccc(Cl)cc3)o2)c(F)c1)Nc1ccc(Cl)c(Cl)c1 | SF-295 CNS | GI50 | 3.63 µM |
| Cn1cc(C2=C(c3cn(C)c4ccc(OCc5ccccc5)cc34)C(=O)NC2=O)c2ccccc21 | SF-295 CNS | GI50 | > 25 µM |
| CC/C(=C(\c1ccc(Cl)cc1)c1ccc(OCCN2CCCCC2)cc1)c1ccc(O)cc1 | SF-295 CNS | GI50 | 1.72 µM |
| COc1ccc(/C(COc2ccc3c(c2)oc(=O)c2cc(OC)ccc23)=N/O)cc1 | SF-295 CNS | GI50 | 6.2 µM |
